Collected EUCAST RM S values appear next to each entry.
test system: Gram-positive bacteria (Staphylococcus spp, Enterococcus spp); assay: Reference method (RM): disk diffusion and/or broth microdilution, S/I/R classification, Gram-positive strains;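 also: susceptibility categories assigned with the latest EUCAST breakpoint tables or CLSI M100 29th edition breakpoints, with quality control of the reference methods following EUCAST and CLSI guidance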; type: cell-based; settings: number of strains susceptible; EUCAST; Hospital S. João, Porto; patients' blood cultures
Lab note: record just the number, no unit beside it.

structure_notation=CC(=O)NC[C@H]1CN(c2ccc(N3CCOCC3)c(F)c2)C(=O)O1 experimental_readout="EUCAST RM S" value=102
structure_notation=Cc1onc(-c2ccccc2)c1C(=O)N[C@@H]1C(=O)N2[C@@H]1SC(C)(C)[C@@H]2C(=O)O experimental_readout="EUCAST RM S" value=5
structure_notation=CC1(C)S[C@@H]2[C@H](NC(=O)[C@H](N)c3ccccc3)C(=O)N2[C@H]1C(=O)O experimental_readout="EUCAST RM S" value=7
structure_notation=CN[C@H](CC(C)C)C(=O)N[C@H]1C(=O)N[C@@H](CC(N)=O)C(=O)N[C@H]2C(=O)N[C@H]3C(=O)N[C@H](C(=O)N[C@H](C(=O)O)c4cc(O)cc(O)c4-c4cc3ccc4O)[C@H](O)c3ccc(c(Cl)c3)Oc3cc2cc(c3O[C@@H]2O[C@H](CO)[C@@H](O)[C@H](O)[C@H]2O[C@H]2C[C@](C)(N)[C@H](O)[C@H](C)O2)Oc2ccc(cc2Cl)[C@H]1O experimental_readout="EUCAST RM S" value=98

Continue with the molecule presented below.
Query string: Look up EUCAST RM S: `CO[C@@]1(NC(=O)Cc2cccs2)C(=O)N2C(C(=O)O)=C(COC(N)=O)CS[C@@H]21`
Result string: 9

Where do the numbers come from? From patent US20250154554A1.
